experiment: Pharmacokinetics assay in rats after intragastrical administration; type: in vivo, Sprague-Dawley (SD) rats; conditions: both sexes, Sprague-Dawley, rat, plasma, po; SD rats, intragastric, 2 mg/kg; read-out: Apparent Distribution Volume Vz/F
Result type: Vd/F (L/kg)

Take a look at these entries with their results.
What value of Vd/F has been reported for the following compound? COc1cn(C(Cc2ccccc2)C(=O)Nc2ccc(C(=O)O)cc2F)c(=O)cc1-c1cc(Cl)ccc1C(C)=O (stereo not drawn)
45.4

What value of Vd/F has been reported for the following compound? COc1cn([C@@H](CC2CCC2)C(=O)Nc2ccc(C(=O)O)cc2)c(=O)cc1-c1cc(Cl)ccc1C(C)=O
6.24

What value of Vd/F has been reported for the following compound? CCC(=O)c1ccc(Cl)cc1-c1cc(=O)n([C@@H](CCOC(C)(C)C)C(=O)Nc2ccc(C(=O)O)cc2)cc1OC
44.4

[A] COc1cn([C@@H](Cc2ccccc2)C(=O)Nc2ccc(C(=O)O)cc2)c(=O)cc1-c1cc(Cl)ccc1C(C)=O
[B] COc1cn([C@@H](Cc2ccccc2)C(=O)Nc2ccc(C(N)=O)cc2)c(=O)cc1-c1cc(Cl)ccc1C(C)=O
[C] CCC(=O)c1ccc(Cl)cc1-c1cc(=O)n([C@@H](CCOC(C)(C)C)C(=O)Nc2ccc3nccnc3c2)cc1OC
Exam item: list the entries in increasing order of Vd/F. List labels; respect the requested ordering.
A, C, B

###

assay: Pharmacokinetics assay in rats after intragastrical administration; assay type: in vivo, Sprague-Dawley (SD) rats; details: both sexes, Sprague-Dawley, rat, plasma, po; SD rats, intragastric, 2 mg/kg; read-out: Half-Life T½ (converted)
Result type: half-life (h)

What value of half-life has been reported for the following compound? CCC(=O)c1ccc(Cl)cc1-c1cc(=O)n([C@@H](Cc2ccccc2)C(=O)Nc2ccc(C(=O)O)cc2)cc1OC
5.55

[1] COc1cn(C(Cc2ccccc2)C(=O)Nc2ccc(C(=O)O)cc2F)c(=O)cc1-c1cc(Cl)ccc1C(C)=O (stereo not shown)
[2] COc1cn([C@@H](Cc2ccccc2)C(=O)Nc2ccc(C(=O)O)cc2)c(=O)cc1-c1c(C(C)=O)ccc(Cl)c1F
[3] CCC(=O)c1ccc(Cl)cc1-c1cc(=O)n([C@@H](CCOC(C)(C)C)C(=O)Nc2ccc3nccnc3c2)cc1OC
# sort list by recorded half-life, greatest to least List labels; respect the requested ordering.
1, 2, 3

###

test: Pharmacokinetics assay in cynomolgus monkeys; format: in vivo; conditions: male, cynomolgus monkey, plasma, po, intragastric, 15 mg/kg, read-out: Area Under Curve AUC
Result type: AUC (ng·h/mL)

[a] CCC(=O)c1ccc(Cl)cc1-c1cc(=O)n([C@@H](CCOC(C)(C)C)C(=O)Nc2ccc(C(=O)O)cc2)cc1OC
[b] COc1cn([C@@H](Cc2ccccc2)C(=O)Nc2ccc(C(=O)O)cc2)c(=O)cc1-c1cc(Cl)ccc1C(C)=O
Lab note: record which item had the higher AUC, a or b . # answer = label of selected item
b

###

Assay: Pharmacokinetics assay in rats after intragastrical administration
Assay type: in vivo, Sprague-Dawley (SD) rats
Conditions: both sexes, Sprague-Dawley, rat, plasma, po; SD rats, intragastric, 2 mg/kg; read-out: Mean Residence Time MRT
Excerpt: Test Example 3. Pharmacokinetics Assay of the Compounds of the Present Invention Rats were used as test animals. […] The pharmacokinetic behavior of the compounds of the present invention was studied and evaluated in rats. 56 healthy adult Sprague-Dawley (SD) rats, half male and half female, were purchased from SINO-BRITSH SIPPR/BK LAB. ANIMAL LTD., CO, with License No.: SCXK (Shanghai) 2008-0016. 2.3 Preparation of the Test Compounds […]
Result type: MRT (h)

What value of MRT has been reported for the following molecule? COc1cn([C@@H](CCOC(C)(C)C)C(=O)Nc2ccc(C(=O)O)cc2)c(=O)cc1-c1cc(Cl)ccc1C(C)=O
4.41

What value of MRT has been reported for the following molecule? CCC(=O)c1ccc(Cl)cc1-c1cc(=O)n([C@@H](CCOC(C)(C)C)C(=O)Nc2ccc3nccnc3c2)cc1OC
1.67

What value of MRT has been reported for the following molecule? CNC(=O)c1ccc(NC(=O)[C@H](Cc2ccccc2)n2cc(OC)c(-c3cc(Cl)ccc3C(C)=O)cc2=O)cc1
2.36

What value of MRT has been reported for the following molecule? COc1cn(C(Cc2ccccc2)C(=O)Nc2ccc(C(=O)O)cc2F)c(=O)cc1-c1cc(Cl)ccc1C(C)=O (stereo not shown)
5

What value of MRT has been reported for the following molecule? COc1cn([C@@H](CC2CCC2)C(=O)Nc2ccc(C(=O)O)cc2)c(=O)cc1-c1cc(Cl)ccc1C(C)=O
1.71

[1] COc1cn([C@@H](Cc2ccccc2)C(=O)Nc2ccc(C(=O)O)cc2)c(=O)cc1-c1cc(Cl)ccc1C(C)=O
[2] COc1cn([C@@H](Cc2ccccc2)C(=O)Nc2ccc(C(=O)O)cc2)c(=O)cc1-c1c(C(C)=O)ccc(Cl)c1F
[3] COc1cn([C@@H](Cc2cccnc2)C(=O)Nc2ccc(C(=O)O)cc2)c(=O)cc1-c1cc(Cl)ccc1C(C)=O
[4] COc1cn([C@@H](Cc2ccccc2)C(=O)Nc2ccc(C(N)=O)cc2)c(=O)cc1-c1cc(Cl)ccc1C(C)=O
Exam item: list the entries in increasing order of MRT. List labels; respect the requested ordering.
3, 4, 2, 1

[a] COc1cn([C@H](CC2CCC2)C(=O)Nc2ccc(C(=O)O)cc2)c(=O)cc1-c1c(C(C)=O)ccc(Cl)c1F
[b] COc1cn([C@@H](Cc2ccccn2)C(=O)Nc2ccc(C(=O)O)cc2)c(=O)cc1-c1cc(Cl)ccc1C(C)=O
Lab note: record which item had the higher MRT, a or b . # answer = label of selected item
a
(a: 8.3 h, b: 1.85 h)

###

assay: Pharmacokinetics assay in rats after intragastrical administration; type: in vivo, Sprague-Dawley (SD) rats; details: both sexes, Sprague-Dawley, rat, plasma, po; SD rats, intragastric, 2 mg/kg; read-out: Clearance CLz/F
Result type: CL/F (mL/min/kg)

Take a look at these entries with their results.
What value of CL/F has been reported for the following compound? COc1cn([C@@H](Cc2ccccc2)C(=O)Nc2ccc(C(=O)O)cc2)c(=O)cc1-c1c(C(C)=O)ccc(Cl)c1F
82.5

What value of CL/F has been reported for the following compound? CCC(=O)c1ccc(Cl)cc1-c1cc(=O)n([C@@H](Cc2ccccc2)C(=O)Nc2ccc(C(=O)O)cc2)cc1OC
69.8

What value of CL/F has been reported for the following compound? COc1cn([C@@H](Cc2ccccc2)C(=O)Nc2ccc(C(=O)O)cc2)c(=O)cc1-c1cc(Cl)ccc1C(C)=O
65.1

[A] COc1cn([C@@H](CC2CCC2)C(=O)Nc2ccc(C(=O)O)cc2)c(=O)cc1-c1cc(Cl)ccc1C(C)=O
[B] COc1cn(C(Cc2ccccc2)C(=O)Nc2ccc(C(=O)O)cc2F)c(=O)cc1-c1cc(Cl)ccc1C(C)=O (stereo not shown)
[C] COc1cn([C@@H](Cc2cccnc2)C(=O)Nc2ccc(C(=O)O)cc2)c(=O)cc1-c1cc(Cl)ccc1C(C)=O
[D] CNC(=O)c1ccc(NC(=O)[C@H](Cc2ccccc2)n2cc(OC)c(-c3cc(Cl)ccc3C(C)=O)cc2=O)cc1
# sort list by recorded CL/F, greatest to least List labels; respect the requested ordering.
C, D, B, A

###

target: Coagulation Factor XIa protease (Homo sapiens (Human), UniProt P03951)
Sequence (P03951 388-625): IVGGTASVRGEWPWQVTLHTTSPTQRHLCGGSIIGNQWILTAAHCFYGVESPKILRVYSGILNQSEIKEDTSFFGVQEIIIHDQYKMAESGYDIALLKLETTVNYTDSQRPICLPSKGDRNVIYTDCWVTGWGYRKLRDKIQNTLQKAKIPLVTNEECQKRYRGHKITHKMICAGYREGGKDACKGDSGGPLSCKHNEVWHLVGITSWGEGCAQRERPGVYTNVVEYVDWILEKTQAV
Sequence (P03951 19-387 partner): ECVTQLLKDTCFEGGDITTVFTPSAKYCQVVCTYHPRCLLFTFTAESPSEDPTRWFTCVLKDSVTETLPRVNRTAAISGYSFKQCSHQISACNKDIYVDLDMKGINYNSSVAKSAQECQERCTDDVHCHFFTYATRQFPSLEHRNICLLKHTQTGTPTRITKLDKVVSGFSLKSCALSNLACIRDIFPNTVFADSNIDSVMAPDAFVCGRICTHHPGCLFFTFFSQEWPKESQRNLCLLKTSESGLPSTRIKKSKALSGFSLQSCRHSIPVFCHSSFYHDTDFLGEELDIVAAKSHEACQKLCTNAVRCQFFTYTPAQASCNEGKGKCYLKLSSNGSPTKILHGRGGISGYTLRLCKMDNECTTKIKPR
Result type: IC50 (µM)

What value of IC50 has been reported for the following compound? COc1cn(C(Cc2ccc(C#N)cc2)C(=O)Nc2ccc(C(=O)O)cc2)c(=O)cc1-c1cc(Cl)ccc1C(C)=O (stereo not shown) [Example 90]
0.1

[P] CCC(=O)c1ccc(Cl)cc1-c1cc(=O)n([C@H](Cc2ccccc2)C(=O)Nc2ccc(C(N)=O)cc2)cc1OC [Example 25]
[Q] COc1cn([C@H](CCOC2CCC2)C(=O)Nc2ccc(C(=O)O)cc2)c(=O)cc1-c1cc(Cl)ccc1C(C)=O [Example 163]
Lab note: record which item had the higher IC50, P or Q . # answer = label of selected item
Q

###

target: Coagulation Factor XIa protease (Homo sapiens (Human), UniProt P03951)
Result type: IC50 (nM)

What value of IC50 has been reported for the following compound? COc1cn(C(Cc2cccc(C#N)c2)C(=O)Nc2ccc(C(=O)O)cc2)c(=O)cc1-c1cc(Cl)ccc1C(C)=O (stereo not shown) [Example 88]
74

[a] CCCCC(C(=O)Nc1ccc(C(=O)O)cc1)n1cc(OC)c(-c2cc(Cl)ccc2C(C)=O)cc1=O (stereo not shown) [Example 155]
[b] COc1cn(C(Cc2ccc(F)cc2)C(=O)Nc2ccc(C(=O)O)cc2)c(=O)cc1-c1cc(Cl)ccc1C(C)=O (stereo not shown) [Example 63]
I'm curious, which of these has a smaller IC50 number: a or b ? # answer = label of selected item
b
(b: 55 nM, a: 81 nM)
